These entries and their values trace back to PubChem BioAssay.

ASSAY PROTOCOL: growth of efflux-deficient E. coli DRC39 – strain DRC39, OD650, 24 h, E. coli filamentation inducers, primary screen (AID 1178);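 note: growth measured as culture turbidity by optical density at 650 nm; test concentration not given here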
STATED CONDITIONS: E. coli DRC39 acrAB, higher = more signal, called active from +8 up or from −8 down
# z-score per record follows
Reply: number alone, nothing else.

{"COMPOUND": "CCOc1ccc(N2C(=O)CSC2c2cccc([N+](=O)[O-])c2)cc1 (stereo not given)", "READOUT NUMBER": 0.754}
{"COMPOUND": "O=C1[C@H]2C=C(Br)[C@H](C[C@@H]2OCCCCCCO)[C@@]12CO2", "READOUT NUMBER": -0.748}
{"COMPOUND": "COCCOC(=O)N1C(=O)[C@@]2(c3cc(C#CCCO)ccc31)[C@H](c1ccc(OCCO)cc1)N1[C@H](c3ccccc3)[C@H](c3ccccc3)OC(=O)[C@H]1[C@@H]2C(N)=O", "READOUT NUMBER": 0.315}
{"COMPOUND": "COC(=O)[C@@]1(CCC(=O)OC(C)(C)C)N=C(c2ccc(OCCCO)cc2)O[C@H]1c1ccccc1", "READOUT NUMBER": -3.29}
{"COMPOUND": "[N-]=[N+]=NCc1ccccc1[C@@H]1OC(c2ccc(OCCCO)cc2)=N[C@]1(CCS(=O)(=O)c1ccccc1)C(=O)N1CCOCC1", "READOUT NUMBER": 2.84}
{"COMPOUND": "COc1ccc([C@H]2C[C@H]3C(I)=C[C@@H]2C(=O)[C@]32CO2)cc1", "READOUT NUMBER": 1.73}
{"COMPOUND": "COCCCNC(=O)[C@]1(Cc2ccccc2)N=C(c2ccc(OCCCO)cc2)O[C@@H]1c1ccccc1CN=[N+]=[N-]", "READOUT NUMBER": 0.228}
{"COMPOUND": "[N-]=[N+]=NCc1ccccc1[C@H]1OC(c2ccc(OCCCO)cc2)=N[C@@]1(Cc1ccccc1)C(=O)N1CCCCC1", "READOUT NUMBER": 1.29}
{"COMPOUND": "COc1ccc([Si](C)(C)[C@@H]2[C@@H](CC(=O)N3Cc4ccccc4C[C@H]3CO)O[C@]3(C(=O)N(Cc4cccc(N5CCC5=O)c4)c4ccccc43)[C@H]2C)cc1", "READOUT NUMBER": 0.249}

QUERY: Param item = CCCCC(=C=CC[C@H](O)c1cccc(OCCO)c1)C[C@H](O)c1ccccn1 ; retrieve measured z-score.
RESULT: 1.58

====

ASSAY PROTOCOL: compound effects on hepatocellular carcinoma cell viability – HepG2, calcein-AM fluorescence, 48 h, basal, profiling panel (AID 1164); note: test concentration not given here
STATED CONDITIONS: higher = more signal
Collected z-score values appear next to each entry.

{"MOLECULE": "[N-]=[N+]=Nc1ccccc1C[C@]1(C(=O)N2CCCCC2)COC(c2ccc(OCCCO)cc2)=N1", "z-score": -0.328}

QUERY: Request the reported z-score associated with CCCCN1CC=CC23O[C@@H]4/C=C\CCCOC(=O)C4[C@H]2C(=O)N(CCCCCO)[C@@H]3C1=O (some centres not stated)
RESULT: -0.195

QUERY: Request: COc1ccc([Si](C)(C)[C@H]2[C@H](CCO)O[C@@]3(C(=O)N(Cc4ccccc4)c4ccc(N5CCCCC5=O)cc43)[C@@H]2C)cc1
RESULT: -3.62

QUERY: Request: COc1cc2c(cc1O)C(c1cccs1)N(Cc1cccc(OC(F)(F)F)c1)CC2 (configuration not stated)
RESULT: -2.37

QUERY: Consider next the molecule CCCC=C(CCC)[C@@H](NC(=O)OCC(C)C)c1ccccc1 in the same way.
RESULT: -0.927

QUERY: Would you kindly repeat that for C=CC1c2cc(O)c(OC)cc2CCN1Cc1cccc(OC(F)(F)F)c1 (configuration not stated) ?
RESULT: -3.19

QUERY: Same thing, different molecule: CO[C@H]1O[C@H](CO)[C@@H](OC(=O)Nc2ccc(Br)cc2)[C@@H]2OC(=O)[C@H](Cc3cccc(Br)c3)C/C=C/C[C@@H](Cc3cccc(Br)c3)C(=O)O[C@@H]12
RESULT: 0.31
